Test system: KM12
Assay: NCI tumour cell line growth inhibition, 48 h
The source made the active and inactive calls. No stated cut-off is given here; in the data, active = GI50 up to about 1.1 µM and inactive = higher.
Outcome field: choose from YES for active, NO for inactive

Lookup: Per the records of this test, what outcome belongs to Cc1ccc(/C(=C/C=C(C#N)C#N)Sc2cc(Cl)ccc2Cl)cc1 ?
Found: NO

Lookup: Per the records of this test, what outcome belongs to C1CCCCC2(CCCCCCCCC3(CCC1)OCCO3)OCCO2 ?
Found: NO

Lookup: Per the records of this test, what outcome belongs to C[N+](C)(C)CC1CCCC/C1=N\O (stereo unspecified) ?
Found: NO

Lookup: Per the records of this test, what outcome belongs to CC(C)OP(=O)(OC(C)C)/C(=N/Nc1ccc([N+](=O)[O-])cc1)NCCO ?
Found: NO

Lookup: Per the records of this test, what outcome belongs to Nc1nc(Cl)cc(NCC2(CO)CC(Cc3ccccc3)C2)n1 (stereo unspecified) ?
Found: NO

Lookup: Per the records of this test, what outcome belongs to CC(=O)c1nc2ccccc2n1CC(=O)c1ccc([N+](=O)[O-])cc1 ?
Found: NO

Lookup: Per the records of this test, what outcome belongs to C/C(=N\NC(N)=S)c1ccc(C)c(C)c1 ?
Found: NO

Lookup: Per the records of this test, what outcome belongs to C#CC(O)/C=C/C(O)CCCC(O)CC#CC(O)C#CC(O)CCCC(O)/C=C/CCCC(=O)CCCCCCCCCCCCCCCC(O)C(O)C#CC(=O)O (stereo unspecified) ?
Found: NO

Lookup: Per the records of this test, what outcome belongs to CCCCCCCCCCCC(=O)OCCOCCOCCOCCOCCOCc1ccccc1 ?
Found: NO

Lookup: Per the records of this test, what outcome belongs to CCCn1c(CN(Cc2nc3ccccc3n2CCC)Cc2nc3ccccc3n2CCC)nc2ccccc21 ?
Found: NO

Lookup: Per the records of this test, what outcome belongs to Cc1cc(-c2ccc(C(=O)C(c3ccccc3)(c3ccccc3)c3ccccc3)[nH]2)on1 ?
Found: NO

Lookup: Per the records of this test, what outcome belongs to O=C1C=C(Nc2ccc(Cl)cc2Cl)c2ccccc2C1=O ?
Found: NO

Lookup: Per the records of this test, what outcome belongs to COC(C)(C)C1=CCC(C)CC1 (stereo unspecified) ?
Found: NO

Lookup: Per the records of this test, what outcome belongs to CC(=O)O[C@H]1C(=O)[C@@]2(C)[C@H]([C@H](OC(=O)c3cccc([N+](=O)[O-])c3)[C@]3(O)C[C@H](OC(=O)[C@H](O)[C@@H](NC(=O)c4ccccc4)c4ccccc4)C(C)=C1C3(C)C)[C@]1(OC(C)=O)CO[C@@H]1C[C@@H]2O ?
Found: YES

Lookup: Per the records of this test, what outcome belongs to Cc1ccc2c(c1)C(=O)/C(=N/Nc1ccc(Cl)cc1)CCO2 ?
Found: NO

Lookup: Per the records of this test, what outcome belongs to C=C(C)C1CC2(C)C(C)CC(O)CC2C(OC(=O)C=C(C)C)C1O (stereo unspecified) ?
Found: NO

Lookup: Per the records of this test, what outcome belongs to Cc1c(C#N)c2nnn(C)c(=O)n2c1-c1ccccc1 ?
Found: NO

Lookup: Per the records of this test, what outcome belongs to O=C(O)C1=C(Cl)c2ccccc2S1(=O)=O ?
Found: NO

Lookup: Per the records of this test, what outcome belongs to COC(=O)C1=C(C(=O)OC)C2(c3ccccc3)c3ccccc3C(=O)C1N2C1CCCCC1 (stereo unspecified) ?
Found: NO

Lookup: Per the records of this test, what outcome belongs to Cc1cc(O)nc(NNC(C#N)c2ccco2)n1 (stereo unspecified) ?
Found: NO

Lookup: Per the records of this test, what outcome belongs to Cc1c2ccnc(C(F)(F)F)c2cc2c1[nH]c1ccccc12 ?
Found: NO

Lookup: Per the records of this test, what outcome belongs to C[N+](C)(C)C1=NNC2=Nc3ccccc3SC2=C1 ?
Found: NO

Lookup: Per the records of this test, what outcome belongs to CC(=O)OC[C@@]12C[C@H]3C(=O)C(C)(C)C[C@H]3[C@]1(C)[C@@H](OC(C)=O)[C@]1(O)[C@H]([C@@H](OC(=O)c3ccccc3)[C@@H](C)[C@H]1OC(C)=O)[C@H]2OC(C)=O ?
Found: NO

Lookup: Per the records of this test, what outcome belongs to CC(=O)C1=NN(c2ccccc2)C2(S1)SC(c1ccccc1)(c1ccccc1)c1ccccc12 (stereo unspecified) ?
Found: NO

Lookup: Per the records of this test, what outcome belongs to Cc1ccccc1C1CC(=O)CC(c2ccccc2C)C12C(=O)NC(=S)NC2=O (stereo unspecified) ?
Found: NO

Lookup: Per the records of this test, what outcome belongs to CCCSc1ccc2[nH]c(N3C(=O)/C(=C/c4cc(OC)c(OC)c(OC)c4)N=C3c3ccccc3)cc2c1 ?
Found: NO

Lookup: Per the records of this test, what outcome belongs to COc1ccc(C(=O)CC(c2ccc(OC)c(OC)c2)c2c(O)oc3ccccc3c2=O)cc1OC (stereo unspecified) ?
Found: NO

Lookup: Per the records of this test, what outcome belongs to COC(=O)C1CC(C(=O)OC)c2nc3cc(C)c(C)cc3nc21 (stereo unspecified) ?
Found: NO

Lookup: Per the records of this test, what outcome belongs to [N-]=[N+]=NC1=CC(=O)c2cccc3cccc1c23 ?
Found: NO

Lookup: Per the records of this test, what outcome belongs to COc1cc2c3c(n(C)c(=O)c2cc1OC)-c1cc2c(cc1/C3=C/CCCCBr)OCO2 ?
Found: NO

Lookup: Per the records of this test, what outcome belongs to C/C(=N\NC(=S)N1CC2CCC(CC2)C1)c1nccs1 ?
Found: YES

Lookup: Per the records of this test, what outcome belongs to Cc1ccc(C(CCO)CCO)nc1 ?
Found: NO

Lookup: Per the records of this test, what outcome belongs to CCNC1=C(NC(=O)c2ccccc2)C(=O)c2ccccc2C1=O ?
Found: NO

Lookup: Per the records of this test, what outcome belongs to Nc1ccc(Oc2ccc(C34CC5C6CC7(c8ccc(Oc9ccc(N)cc9)cc8)CC5C(C3)C(C7)C6C4)cc2)cc1 ?
Found: NO

Lookup: Per the records of this test, what outcome belongs to COc1ccc2c(c1)N=C1CSC(c3cc([N+](=O)[O-])ccc3Cl)N1C2 (stereo unspecified) ?
Found: NO

Lookup: Per the records of this test, what outcome belongs to O=[N+]([O-])c1cc(-c2nnc(S)[nH]2)ccc1O ?
Found: NO

Lookup: Per the records of this test, what outcome belongs to CN(C(=O)c1ccc([N+](=O)[O-])cc1)c1ccccc1 ?
Found: NO

Lookup: Per the records of this test, what outcome belongs to O=C(CN1CCCC1=O)CS(=O)(=O)c1ccccc1 ?
Found: NO

Lookup: Per the records of this test, what outcome belongs to CCCCCCCCCCCCCC(=O)NCO ?
Found: NO

Lookup: Per the records of this test, what outcome belongs to O=S1(=O)CS(=O)(=O)OCCCO1 ?
Found: NO

Lookup: Per the records of this test, what outcome belongs to CCCC(=O)Nc1cc(/C=C/C(=O)N2CC(CCl)c3ccc([N+](=O)[O-])cc32)n(C)c1 (stereo unspecified) ?
Found: NO
